Each item that follows carries a reported pIC50.
measured-target: Hepatocyte growth factor receptor (Homo sapiens, UniProt P08581, D1228N)
Sequence (P08581 25-1390 D1228N limits assumed): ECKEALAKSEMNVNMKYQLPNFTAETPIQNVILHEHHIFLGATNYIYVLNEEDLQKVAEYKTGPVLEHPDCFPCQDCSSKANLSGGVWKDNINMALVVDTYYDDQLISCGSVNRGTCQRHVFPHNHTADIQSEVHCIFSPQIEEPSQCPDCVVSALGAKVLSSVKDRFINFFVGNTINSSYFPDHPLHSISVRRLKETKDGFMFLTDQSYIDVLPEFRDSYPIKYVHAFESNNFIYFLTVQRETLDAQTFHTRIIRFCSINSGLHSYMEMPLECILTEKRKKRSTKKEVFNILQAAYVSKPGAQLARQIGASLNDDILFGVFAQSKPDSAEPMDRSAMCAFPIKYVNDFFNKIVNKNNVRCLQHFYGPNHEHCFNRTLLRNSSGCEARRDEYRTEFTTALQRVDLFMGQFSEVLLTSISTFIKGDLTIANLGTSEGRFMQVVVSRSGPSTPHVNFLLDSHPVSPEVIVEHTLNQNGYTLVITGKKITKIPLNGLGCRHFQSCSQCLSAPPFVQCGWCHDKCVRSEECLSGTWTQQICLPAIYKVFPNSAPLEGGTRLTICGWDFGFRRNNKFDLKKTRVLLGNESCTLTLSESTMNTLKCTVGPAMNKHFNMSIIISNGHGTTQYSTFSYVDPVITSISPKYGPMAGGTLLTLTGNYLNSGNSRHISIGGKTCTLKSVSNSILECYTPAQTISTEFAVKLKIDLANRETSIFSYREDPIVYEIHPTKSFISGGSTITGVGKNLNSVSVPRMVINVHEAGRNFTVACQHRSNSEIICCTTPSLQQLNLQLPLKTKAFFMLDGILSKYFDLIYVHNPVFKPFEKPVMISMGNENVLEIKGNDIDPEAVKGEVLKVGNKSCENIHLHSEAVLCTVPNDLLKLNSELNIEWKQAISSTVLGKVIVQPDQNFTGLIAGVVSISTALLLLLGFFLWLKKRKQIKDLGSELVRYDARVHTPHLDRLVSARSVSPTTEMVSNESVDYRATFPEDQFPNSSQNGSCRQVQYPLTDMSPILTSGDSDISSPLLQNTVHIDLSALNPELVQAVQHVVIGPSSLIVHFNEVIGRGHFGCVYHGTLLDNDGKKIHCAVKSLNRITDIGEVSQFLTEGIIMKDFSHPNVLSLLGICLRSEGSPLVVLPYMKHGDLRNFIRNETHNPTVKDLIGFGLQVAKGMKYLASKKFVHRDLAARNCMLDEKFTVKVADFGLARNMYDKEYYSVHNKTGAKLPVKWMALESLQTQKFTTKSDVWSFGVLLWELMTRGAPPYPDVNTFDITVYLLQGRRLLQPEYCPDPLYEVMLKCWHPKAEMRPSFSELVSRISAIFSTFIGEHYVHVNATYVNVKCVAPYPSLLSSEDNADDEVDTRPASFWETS
assay-details: Displacement of tracer 236 from N-terminal GST-tagged recombinant human MET D1228N mutant (956 to end residues) expressed in Sf9 insect cells incubated for 1 hr by TR-FRET assay
Quick note: pIC50 means taking -log10 of the concentration in moles per liter.

# annotated cases, reported pIC50 shown
Cc1cc(N(c2cc(F)c(NC(=O)c3ccnn(-c4ccc(F)cn4)c3=O)cc2F)[C@H]2C[C@H](c3ccn(C)n3)C2)c(F)cn1	8.22
Cn1ccc([C@H]2C[C@H](N(c3cc(F)c(NC(=O)c4ccnn(-c5ccc(F)cn5)c4=O)cc3F)c3nccn4nccc34)C2)n1	8.22

Let us move to another entry and its pIC50.
*Q* Name the recorded pIC50 for `CC(C)(C#N)CN(c1cc(F)c(NC(=O)c2ccnn(-c3ccc(F)cc3)c2=O)cc1F)c1cccn2nccc12` .
*A* 8.10

Data origin, for the record: ChEMBL document CHEMBL5576125
